Molecular target: IRAK4 enzyme (Homo sapiens (Human))
Sequence (Q9NWZ3 whole entry): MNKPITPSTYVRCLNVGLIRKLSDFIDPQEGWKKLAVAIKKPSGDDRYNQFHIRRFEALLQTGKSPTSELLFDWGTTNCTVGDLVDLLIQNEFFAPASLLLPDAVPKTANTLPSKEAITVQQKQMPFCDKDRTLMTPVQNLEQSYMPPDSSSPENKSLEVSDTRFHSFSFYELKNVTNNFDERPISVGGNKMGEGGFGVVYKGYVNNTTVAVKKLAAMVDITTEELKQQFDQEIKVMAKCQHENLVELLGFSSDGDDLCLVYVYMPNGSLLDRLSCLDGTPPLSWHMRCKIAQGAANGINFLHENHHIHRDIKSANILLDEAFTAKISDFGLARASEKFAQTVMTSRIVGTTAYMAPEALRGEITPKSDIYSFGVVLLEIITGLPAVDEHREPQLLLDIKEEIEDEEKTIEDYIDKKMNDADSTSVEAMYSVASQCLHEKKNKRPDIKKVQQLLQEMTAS
Test: biochemical
Type: biochemical
Conditions: IRAK4 enzyme, TR-FRET (HTRF), 500 μM ATP
propertyMeasured: IC50 (nM)
Answers are plain numbers, in nM.

Before answering, review these 5 worked examples.
CC(C)(O)[C@H](F)CNC(=O)c1cnc(-c2ccc3cc(C#N)cnn23)cc1Nc1ccc2c(c1)OC(F)(F)O2	5
N#Cc1cnn2c(-c3cc(N[C@H]4CCC[C@@H](O)C4)c(C(=O)NC4C[C@H]4F)cn3)ccc2c1 (some centres unmarked)	5
N#Cc1cnn2c(-c3cc(NC45CCC(O)(CC4)CC5)c(C(=O)NCC(=O)N4CCCCC4)cn3)ccc2c1	2
COC(=O)N[C@H]1C[C@H](Nc2cc(-c3ccc4cc(C#N)cnn34)ncc2C(=O)NC[C@@H](F)C(C)(C)O)C1	1
CC(C)(O)[C@H](F)CNC(=O)c1cnc(-c2ccc3cc(C#N)cnn23)cc1N[C@H]1C[C@H](S(C)(=O)=O)C1	1

Please state IC50 for every compound in the list that follows.
1. CC(C)(O)[C@H](F)CNC(=O)c1cnc(-c2ccc3cc(C#N)cnn23)cc1NC1Cc2ccncc2C1 (single isomer, unassigned) [Example 676]
2. CC(C)(O)[C@H](F)CNC(=O)c1cnc(-c2ccc3cc(C#N)cnn23)cc1NC12CCC(C(=O)NC3CC3)(CC1)CC2
3. CC(C)(O)[C@H](F)CNC(=O)c1cnc(-c2ccc3cc(C#N)cnn23)cc1N[C@H]1C[C@H](CN)C1

Marked response:
1. 1
2. 1
3. 1

* * *

System: TNFα
Experiment: cells
Type: cell-based, human
Conditions: Homo sapiens, Monocyte, LPS-stimulated human monocytes, TNFα content; read-out: EC50 TNF
Quick rule for you: EC50 under 100 nM gets label 1, anything else gets label 0.

CC(C)(O)[C@H](F)CNC(=O)c1cnc(-c2ccc3cc(C#N)cnn23)cc1N[C@]1(C)CC[C@H](O)CC1	label 1
CC(C)(O)[C@H](F)CNC(=O)c1cnc(-c2ccc3cc(C#N)cnn23)cc1N[C@H]1C[C@H]2CNC[C@H]2C1	label 0
COC(=O)N[C@H]1CC[C@H](Nc2cc(-c3ccc4cc(C#N)cnn34)ncc2C(=O)NC[C@@H](F)C(C)(C)O)CC1	label 1
CC(=O)Nc1cncc(NC(=O)c2cnc(-c3ccc4cc(C#N)cnn34)cc2NC(C)C)c1	label 0
CNC(=O)c1cnc(-c2ccc3cc(C#N)cnn23)cc1N[C@H]1CC[C@H](C(=O)NC)C1	label 0
Cc1ncoc1C12CCC(Nc3cc(-c4ccc5cc(C#N)cnn45)ncc3C(=O)NC[C@@H](F)C(C)(C)O)(CC1)CO2	label 1

We now examine a further compound.
Exam item: # strict comparison: is reported EC50 < 100 nM? input = `CC(C)(O)[C@H](F)CNC(=O)c1cnc(-c2ccc3cc(C#N)cnn23)cc1N[C@H]1C[C@H](CNC2COC2)C1`
Marked response: label 0

* * *

Target: IRAK4 enzyme (Homo sapiens (Human))
Assay: biochemical
Assay type: biochemical
Details: IRAK4 enzyme, TR-FRET, 500 μM ATP
Assign pIC50 to each entry below.
Give bare numbers, as −log10 of the molar value.

Before answering, review these 2 worked examples.
CC(C)Nc1cc(-c2ccc3cc(C#N)cnn23)ncc1C(=O)NCCC(C)(C)N	8.70
CNC(=O)O[C@H]1CC[C@@H](Nc2cc(-c3ccc4cc(C#N)cnn34)ncc2C(=O)NC[C@@H](F)C(C)(C)O)CC1	6.00

Exam item: Notebook: pull reported pIC50 for IRAK4 enzyme (Homo sapiens (Human)), entry `Cc1ncc(-c2ccc(Nc3cc(-c4ccc5cc(C#N)cnn45)ncc3C(=O)NC[C@@H](F)C(C)(C)O)cc2)o1`
Marked response: 9.00

* * *

Tested on: TNFα
Assay: cells
Type: cell-based, human
Settings: Homo sapiens, Monocyte, LPS-stimulated human monocytes, TNFα content; read-out: EC50 TNF
propertyMeasured: EC50

Before answering, review these 3 worked examples.
CC(C)(O)[C@H](F)CNC(=O)c1cnc(-c2ccc3cc(C#N)cnn23)cc1Nc1ccc2ncsc2c1	66 nM
N#Cc1cnn2c(-c3cc(NC45CCC(O)(CC4)CC5)c(C(=O)NC[C@H]4C[C@@H](NC(=O)C5CC5)C4)cn3)ccc2c1	89 nM
CC(C)(O)[C@H](F)CNC(=O)c1cnc(-c2ccc3cc(C#N)cnn23)cc1Nc1cnc(N)nc1	37 nM

Attention now shifts to the item below.
Exam item: Which EC50 reading was recorded for the compound `CN(C)C(=O)O[C@H]1C[C@H](Nc2cc(-c3ccc4cc(C#N)cnn34)ncc2C(=O)NC[C@@H](F)C(C)(C)O)C1` ?
Marked response: > 10000 nM

* * *

System: TNFα
Test: cells
Type: cell-based, human
Settings: Homo sapiens, Monocyte, LPS-stimulated human monocytes, TNFα by TR-FRET; read-out: EC50 TNF
propertyMeasured: pEC50
Give bare numbers, as −log10 of the molar value.

CC(C)(O)[C@H](F)CNC(=O)c1cnc(-c2ccc3cc(C#N)cnn23)cc1NC1CC2(CCN(CC(F)(F)F)C2)C1 (some centres unmarked)	6.93
CC(C)(O)[C@H](F)CNC(=O)c1cnc(-c2ccc3cc(C#N)cnn23)cc1Nc1cncc(OCC(F)F)c1	8.52
CCOc1nccc(Nc2cc(-c3ccc4cc(C#N)cnn34)ncc2C(=O)NC[C@@H](F)C(C)(C)O)n1	6.95

Please state pEC50 for every compound in the list that follows.
1. CC(C)(C)OC(=O)CNC(=O)c1cnc(-c2ccc3cc(C#N)cnn23)cc1NC12CCC(O)(CC1)CC2
2. N#Cc1cnn2c(-c3cc(NC45CCC(O)(CC4)CC5)c(C(=O)NCc4cccnc4)cn3)ccc2c1
3. CC1(C)CC1CNC(=O)c1cnc(-c2ccc3cc(C#N)cnn23)cc1NC12CCC(O)(CC1)CC2 (centres unmarked)
4. CN1CCOc2cc(Nc3cc(-c4ccc5cc(C#N)cnn45)ncc3C(=O)NC[C@@H](F)C(C)(C)O)ccc21

Marked response:
7.82
6.79
6.92
8.00

Please state pEC50 for every compound in the list that follows.
1. CC(C)(O)[C@H](F)CNC(=O)c1cnc(-c2ccc3cc(C#N)cnn23)cc1Nc1ccc(-c2cn[nH]c2)cn1
2. CC(C)(O)[C@H](F)CNC(=O)c1cnc(-c2ccc3cc(C#N)cnn23)cc1N[C@H]1CC[C@H](N2CCOCC2)CC1
3. CC(C)(O)[C@H](F)CNC(=O)c1cnc(-c2ccc3cc(C#N)cnn23)cc1N[C@H]1C[C@H](CNC(=O)C2(C(F)(F)F)CC2)C1
4. CC(C)(O)[C@H](F)CNC(=O)c1cnc(-c2ccc3cc(C#N)cnn23)cc1Nc1ccc(N2CCN(C3COC3)CC2)nc1
5. CC1(C(=O)NC[C@H]2C[C@H](Nc3cc(-c4ccc5cc(C#N)cnn45)ncc3C(=O)NC[C@@H](F)C(C)(C)O)C2)COC1
6. COC[C@@H]1CCN1c1ccc(Nc2cc(-c3ccc4cc(C#N)cnn34)ncc2C(=O)NC[C@@H](F)C(C)(C)O)cn1

Marked response:
7.51
7.14
7.64
7.29
6.99
7.55

* * *

Test system: TNFα
Experiment: cells
Format: cell-based, human
Conditions: Homo sapiens, Monocyte, LPS-stimulated human monocytes, TNFα content; read-out: EC50 TNF
propertyMeasured: pEC50
Answers are plain numbers, as −log10 of the molar value.

Before answering, review these 3 worked examples.
CC(C)(O)[C@H](F)CNC(=O)c1cnc(-c2ccc3cc(C#N)cnn23)cc1NC1CCS(=O)(=O)CC1 [Example 75]	6.26
COc1cncc(Nc2cc(-c3ccc4cc(C#N)cnn34)ncc2C(=O)NC[C@@H](F)C(C)(C)O)c1 [Example 605]	7.62
CNC(=O)c1cnc(-c2ccc3cc(C#N)cnn23)cc1NC12CCC(NC(C)=O)(CC1)CC2 [Example 482]	7.32

Please state pEC50 for every molecule in the list that follows.
1. CN(C)S(=O)(=O)N1CCC(Nc2cc(-c3ccc4cc(C#N)cnn34)ncc2C(=O)NC[C@@H](F)C(C)(C)O)CC1 [Example 244]
2. CC(C)Nc1cc(-c2ccc3cc(-c4nnn[nH]4)cnn23)ncc1C(=O)NC[C@@H](F)C(C)(C)O [Example 17]
3. CC(=O)N[C@H]1C[C@@H](Nc2cc(-c3ccc4cc(C#N)cnn34)ncc2C(=O)NC[C@@H](F)C(C)(C)O)C1 [Example 458]
4. CC(=O)NC12CC(Nc3cc(-c4ccc5cc(C#N)cnn45)ncc3C(=O)NCC#N)(C1)C2 [Example 496]

Marked response:
1. 6.99
2. 5.28
3. 5.61
4. 7.38

Please state pEC50 for every molecule in the list that follows.
1. CC(N)(CCNc1cc(-c2ccc3cc(C#N)cnn23)ncc1C(=O)NC[C@@H](F)C(C)(C)O)C(F)F (stereo partly drawn) [Example 559]
2. CC(C)(O)[C@H](F)CNC(=O)c1cnc(-c2ccc3cc(C#N)cnn23)cc1N[C@H]1C[C@H](COC(=O)NCC(F)F)C1 [Example 736]

Marked response:
[7.11, 7.32]

Please state pEC50 for every molecule in the list that follows.
1. CC(C)OC(=O)NC[C@H]1C[C@H](Nc2cc(-c3ccc4cc(C#N)cnn34)ncc2C(=O)NC[C@@H](F)C(C)(C)O)C1 [Example 539]
2. CC(=O)N1C[C@H]2C[C@@H](Nc3cc(-c4ccc5cc(C#N)cnn45)ncc3C(=O)NC[C@@H](F)C(C)(C)O)C[C@H]2C1 [Example 246]
3. COC(=O)N[C@H]1C[C@H](CNC(=O)c2cnc(-c3ccc4cc(C#N)cnn34)cc2NC23CCC(O)(CC2)CC3)C1 [Example 733]
4. Cc1cc(Nc2cc(-c3ccc4cc(C#N)cnn34)ncc2C(=O)NC[C@@H](F)C(C)(C)O)ccc1C#N [Example 583]
5. CC(C)(O)[C@H](F)CNC(=O)c1cnc(-c2ccc3cc(C#N)cnn23)cc1N[C@H]1CCCNC1 [Example 258]
6. CC(C)(O)[C@H](F)CNC(=O)c1cnc(-c2ccc3cc(C#N)cnn23)cc1NC1CCC1 [Example 117]

Marked response:
7.92
6.20
6.61
6.85
7.08
7.33

Please state pEC50 for every molecule in the list that follows.
1. CC(C)(C#N)c1ccc(Nc2cc(-c3ccc4cc(C#N)cnn34)ncc2C(=O)NC[C@@H](F)C(C)(C)O)cn1 [Example 683]
2. COC(=O)NCCNC(=O)c1cnc(-c2ccc3cc(C#N)cnn23)cc1NC12CCC(O)(CC1)CC2 [Example 746]

Marked response:
1. 7.35
2. 6.98

Source: patent US10336762B2
